Biological target: Amyloid-beta precursor protein (Homo sapiens, UniProt P05067)
Sequence (P05067 whole entry): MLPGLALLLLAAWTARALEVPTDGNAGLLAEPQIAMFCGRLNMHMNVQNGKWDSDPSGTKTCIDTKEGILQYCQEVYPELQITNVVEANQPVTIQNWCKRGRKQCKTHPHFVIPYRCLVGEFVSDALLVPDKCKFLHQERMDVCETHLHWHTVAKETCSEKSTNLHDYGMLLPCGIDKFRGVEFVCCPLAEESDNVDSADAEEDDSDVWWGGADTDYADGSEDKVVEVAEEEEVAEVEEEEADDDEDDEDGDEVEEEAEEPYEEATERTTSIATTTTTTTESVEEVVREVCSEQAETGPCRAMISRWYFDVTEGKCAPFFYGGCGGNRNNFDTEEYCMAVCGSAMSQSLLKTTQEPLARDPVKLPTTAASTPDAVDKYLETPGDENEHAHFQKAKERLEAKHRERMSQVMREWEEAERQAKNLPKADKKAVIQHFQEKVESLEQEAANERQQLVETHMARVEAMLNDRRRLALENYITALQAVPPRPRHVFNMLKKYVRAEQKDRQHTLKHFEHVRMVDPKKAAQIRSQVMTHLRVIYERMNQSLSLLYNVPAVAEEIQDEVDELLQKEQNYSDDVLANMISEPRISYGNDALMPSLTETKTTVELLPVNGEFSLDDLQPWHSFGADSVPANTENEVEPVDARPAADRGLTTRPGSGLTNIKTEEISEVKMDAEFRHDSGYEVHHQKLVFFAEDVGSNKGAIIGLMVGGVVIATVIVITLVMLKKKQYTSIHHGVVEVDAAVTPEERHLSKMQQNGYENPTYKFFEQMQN
Assay: Binding affinity to amyloid beta (1 to 40) (unknown origin) aggregates
MEASURE: Ki (nM)
Give the value in nM but do not write nM after it.

Task: Write down the reported Ki (system: Amyloid-beta precursor protein (Homo sapiens, UniProt P05067)) of CCCC[N+]1=C(/C=C/c2ccc(N(CC)CC)cc2)C(C)(C)c2ccccc21
Output: 1.37

###

Assay: Binding affinity to soluble amyloid beta (unknown origin)
Design: species or system Homo sapiens
MEASURE: Kd (nM)
Give the value in nM but do not write nM after it.

Task: Determine from records and report Kd for CCN(CC)c1ccc(/C=C/C2=[O+][B-](F)(F)OC(/C=C/c3ccc(N(CC)CC)nc3)=C2CCCOc2c(C)cccc2C)cn1
Output: 7.5

###

Assay: Binding affinity to tau protein (unknown origin)
Set-up: species or system Homo sapiens
MEASURE: IC50 (nM)
Give the value in nM but do not write nM after it.

- SMILES STRUCTURE: "CCCC[N+]1=C(/C=C/c2ccc(N(CC)CC)cc2)C(C)(C)c2ccccc21"
  IC50 (nM): 1.41

Task: Determine from records and report IC50 for C[N+]1=C(/C=C/c2ccc(N3CCCC3)cc2)C(C)(C)c2ccccc21
Output: 5.1

Task: Determine from records and report IC50 for COc1cc(N(C)C)cc(OC)c1/C=C/C(=O)/C=C(O)/C=C/c1c(OC)cc(N(C)C)cc1OC
Output: 770

###

Assay: Binding affinity to amyloid beta (unknown origin)
Parameters: species or system Homo sapiens
MEASURE: IC50

- SMILES STRUCTURE: "CN(C)c1ccc(/C=C/c2cc(/C=C/c3ccc(N(C)C)cc3)ncn2)cc1"
  IC50: "4 nM"

// next item, IC50 requested
Task: Determine from records and report IC50 for C(=C\c1cc(/C=C/c2ccc(N3CCCC3)cc2)ncn1)/c1ccc(N2CCCC2)cc1
Output: 2 nM

###

Target: Amyloid-beta precursor protein (Homo sapiens, UniProt P05067)
Experiment: Binding affinity to human amyloid beta (1 to 40) monomer measured by fluorescence assay
MEASURE: pKd
# pKd = -log10(concentration in molar units)

Task: Determine from records and report pKd for Cc1c(/C=C/C2=CC(/C=C/c3cnn(-c4ccccc4)c3C)=[O+][B-](F)(F)O2)cnn1-c1ccccc1
Output: 7.07

###

Below, each entry is listed with its recorded pKd.
Biological target: UniProt P05067
Assay: Binding affinity to human amyloid beta (1 to 40) aggregates measured by fluorescence assay
# pKd = -log10(concentration in molar units)

- SMILES STRUCTURE: "CN(C)c1ccc(/C=C/C2=CC(/C=C/c3ccc(N(C)C)cc3)=[O+][B-]3(OC(=O)C(=O)O3)O2)cc1"
  pKd: 7.42

// next item, pKd requested
Task: Determine from records and report pKd for Cc1c(/C=C/C2=CC(/C=C/c3cnn(-c4ccccc4)c3C)=[O+][B-](F)(F)O2)cnn1-c1ccccc1
Output: 7.28

###

Test: Binding affinity to insoluble amyloid beta (unknown origin)
Set-up: species or system Homo sapiens
MEASURE: pKd
# pKd = -log10(concentration in molar units)

Task: Determine from records and report pKd for CCN(CC)c1ccc(/C=C/C2=[O+][B-](F)(F)OC(/C=C/c3ccc(N(CC)CC)nc3)=C2CCCOc2c(C)cccc2C)cn1
Output: 6.30

###

Below, each entry is listed with its recorded Kd.
Experiment: Binding affinity to tau protein (unknown origin)
Parameters: species or system Homo sapiens
Give the value in nM but do not write nM after it.

Task: Determine from records and report Kd for COc1cc(N(C)C)cc(OC)c1/C=C/C=C/C=C/C(C#N)C(=O)OCc1ccco1 (stereo unspecified)
Output: 1020

Task: Determine from records and report Kd for CC(C)CC1=CC(/C=C/C=C/c2ccc(N(C)C)cc2)=[O+][B-](F)(F)O1
Output: 50000

Task: Determine from records and report Kd for CN(C)c1ccc(/C=C/c2cnc3ccccc3n2)s1
Output: 127

Task: Determine from records and report Kd for Cc1cc(/C=C/c2ccc(N(C)C)cc2)n2c1C=C1C=CC=[N+]1[B-]2(F)F
Output: 44.1

Task: Determine from records and report Kd for Cc1ccc2c(sc(-c3ccc4c(c3)sc(-c3ccc(N(C)C)cc3)[n+]4C)[n+]2C)c1S(=O)(=O)O
Output: 1900

Task: Determine from records and report Kd for CN(C)c1ccc2nc(/C=C/C=C/C=C(C#N)C#N)cnc2c1
Output: 43.1

Task: Determine from records and report Kd for Cc1cc(/C=C/c2ccc3cc(N(C)C)ccc3c2)n2c1C=C1C=CC=[N+]1[B-]2(F)F
Output: 1.19

Task: Determine from records and report Kd for CC[n+]1c(/C=C/C=C/c2ccc(N(C)C)cc2)sc2ccccc21
Output: 126

###

Biological target: Amyloid-beta precursor protein (Homo sapiens)
Assay: Binding affinity to human amyloid beta (1 to 42) oligomer measured by fluorescence assay
MEASURE: Kd (nM)
Give the value in nM but do not write nM after it.

- SMILES STRUCTURE: "CN(C)c1ccc(/C=C/C2=CC(/C=C/c3ccc(N(C)C)cc3)=[O+][B-]3(OC(=O)C(=O)O3)O2)cc1"
  Kd (nM): 3.8

Task: Write down the reported Kd (system: Amyloid-beta precursor protein (Homo sapiens)) of CCN(CC)c1ccc(/C=C/C2=CC(/C=C/c3ccc(N(CC)CC)nc3)=[O+][B-](F)(F)O2)cn1
Output: 16

Task: Write down the reported Kd (system: Amyloid-beta precursor protein (Homo sapiens)) of Cc1c(/C=C/C2=CC(/C=C/c3cnn(-c4ccccc4)c3C)=[O+][B-](F)(F)O2)cnn1-c1ccccc1
Output: 68.8

###

Target: Amyloid-beta precursor protein (Homo sapiens, UniProt P05067)
Assay: Binding affinity to amyloid beta (1 to 40) (unknown origin) fibrils
MEASURE: Ki

Task: Determine from records and report Ki for Cc1ccc2nc(-c3ccc(N(C)C)cc3)sc2c1
Output: 143 nM

###

Molecular target: Amyloid-beta precursor protein (Homo sapiens, UniProt P05067)
Assay: Displacement of [125I]IMPY from amyloid beta (1 to 40) (unknown origin) measured by competitive radioligand binding assay
MEASURE: Kd (nM)
Give the value in nM but do not write nM after it.

Task: Determine from records and report Kd for CN1C(=O)C(=C/C=C/C=C/c2ccc(N(C)C)cc2)C(=O)N(C)C1=O
Output: 23.9

###

Molecular target: Amyloid-beta precursor protein (Homo sapiens, UniProt P05067)
Test: Binding affinity to amyloid beta (1 to 40) (unknown origin) monomer
MEASURE: pKd
# pKd = -log10(concentration in molar units)

Reference set (5 entries):
- SMILES STRUCTURE: "C[n+]1ccc(/C=C/c2ccc(N(c3ccccc3)c3ccccc3)cc2)c2ccccc21"
  pKd: 4.59
- SMILES STRUCTURE: "CCCN(CCC)c1ccc(/C=C/c2cc[n+](OCC)c3ccccc23)cc1"
  pKd: 5.21
- SMILES STRUCTURE: "CCCCN(CCCC)c1ccc2cc(/C=C/c3cc[n+](C)c4ccccc34)ccc2c1"
  pKd: 4.15
- SMILES STRUCTURE: "COCCOCCn1c2ccccc2c2cc(/C=C/c3cc[n+](C)c4ccccc34)ccc21"
  pKd: 4.02
- SMILES STRUCTURE: "CCCCN(CCCC)c1ccc2cc(/C=C/c3c[n+](C)cc4ccccc34)ccc2c1"
  pKd: 4.09

Task: Determine from records and report pKd for CCN(CC)c1ccc(/C=C/C2=CC(/C=C/c3ccc(N(C)C)cc3)=[O+][B-](F)(F)O2)cn1
Output: 6.98

Task: Determine from records and report pKd for CCO[n+]1ccc(/C=C/c2ccc(N(C)C)cc2)c2ccccc21
Output: 4.89

Task: Determine from records and report pKd for COCCOCCn1c2ccc(F)cc2c2cc(/C=C/c3cc[n+](CCO)c4ccccc34)ccc21
Output: 5.49

Task: Determine from records and report pKd for CCCCN(CCCC)c1ccc2cc(/C=C/c3cc[n+](CCO)c4ccccc34)ccc2c1
Output: 3.61

###

Biological target: Amyloid-beta precursor protein (Homo sapiens, UniProt P05067)
Experiment: Binding affinity to amyloid beta (1 to 42) (unknown origin) aggregates
MEASURE: pKi
# pKi = -log10(concentration in molar units)

- SMILES STRUCTURE: "CC1=CC(C)=[N+]2C1=Cc1ccc(/C=C/c3ccc(-c4ccc([125I])cc4)s3)n1[B-]2(F)F"
  MEASURE: "pKi"
  NUMERIC VALUE: 6.97
- SMILES STRUCTURE: "CN(C)c1ccc(/C=C/C=C/C=C2C(=O)CC(C)(C)CC2=O)cc1"
  MEASURE: "pKi"
  NUMERIC VALUE: 6.19
- SMILES STRUCTURE: "CN(C)c1ccc(/C=C/C=C/C=C2C(=O)OC(C)(C)OC2=O)cc1"
  MEASURE: "pKi"
  NUMERIC VALUE: 6.45

// next item, pKi requested
Task: Determine from records and report pKi for CN(C)c1ccc(/C=C/C=C/C=C(C#N)C#N)cc1
Output: 7.43
